# ASSAY SYSTEM: human recombinant IL-17A (Homo sapiens, UniProt Q16552)
# Construct: purchased R&D Systems 7955-IL/CF
# Sequence (Q16552 24-155): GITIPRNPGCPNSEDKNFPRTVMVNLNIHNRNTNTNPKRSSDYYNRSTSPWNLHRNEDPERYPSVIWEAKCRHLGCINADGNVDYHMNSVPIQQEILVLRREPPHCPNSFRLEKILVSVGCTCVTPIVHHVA
# TEST PROTOCOL: IL-17A AlphaLISA assay (block binding of IL-17A to its receptor IL-17RA)
# DETAILS: compounds pre-incubated with the IL-17A for 30 min (indicated by * in Table A); read-out: AlphaLISA pIC50 (converted)
Mark Y for IC50 under 200 nM, N if at or over.

See these solved cases before continuing.
Problem: State whether 200 nM exceeds IC50 recorded for CCn1nccc1C(=O)N[C@H](C(=O)Nc1ccc(-c2c(C)nnn2C)cn1)C1CCCCCC1 [Example 149] .
Result: Y

Problem: Decide: IC50 of CCn1nccc1C(=O)N[C@H](C(=O)Nc1ccc(-c2c(C)noc2C)cn1)C1CCCCCC1 [Example 122] strictly below 200 nM?
Result: Y

Problem: Is IC50 strictly under 200 nM for the entry Cc1cnn(C)c1-c1ccc(NC(=O)C(NC(=O)c2ccnn2C)C2C3(CC3)CCC23CC3)nc1 (centres unmarked) [Example 220] ?
Result: Y

Problem: Please state whether IC50 is below 200 nM for CCc1nocc1C(=O)N[C@H](C(=O)Nc1ccc(-c2c(C)noc2C)cn1)[C@H]1CC[C@H](C)CC1 [Example 111]
Result: Y

Problem: Lab log: compare recorded IC50 with 200 nM; is it strictly lower for Cc1n[nH]c(C)c1-c1ccc(NC(=O)[C@@H](NC(=O)c2cnnn2C)C2CCCCCC2)cn1 [Example 209] ?
Result: N

Problem: is_below(IC50, 200 nM) for Cc1noc(C)c1-c1ncc(NC(=O)[C@@H](NC(=O)c2ccnn2C)[C@H]2CC[C@H](C)CC2)cn1 [Example 135] ?
Result: N

Next up:
Problem: Hello, is IC50 of the following compound strictly smaller than 200 nM? CCc1nocc1C(=O)N[C@H](C(=O)Nc1ccc(-c2ncncc2C)cn1)[C@H]1CC[C@H](C)CC1 [Example 140]
Result: N
